Entry source: the NIST ThermoML archive (doi:10.1016/j.jct.2013.10.038)

experiment: activity coefficient (dimensionless); of the first substance listed, at infinite dilution; xn = mol fraction of the nth substance listed; settings: 303.15 K; 101 kPa; Liquid; Chromatography; x1 = 0
Value kind: activity coefficient
Write no unit; give the number alone.

activity coefficient measured on Cc1ccc(C)cc1 [1,4-dimethylbenzene] + CCCCCCn1cc[n+](C)c1.O=C([O-])C(F)(F)F = 4.12

Noted for c1ccccc1 [benzene] + CCCCCCn1cc[n+](C)c1.O=C([O-])C(F)(F)F : its activity coefficient reads 2.05

Item: CCc1ccccc1 [ethylbenzene] + CCCCCCn1cc[n+](C)c1.O=C([O-])C(F)(F)F | activity coefficient: 4.1

According to the records, this molecule C1CCOC1 [tetrahydrofuran] + CCCCCCn1cc[n+](C)c1.O=C([O-])C(F)(F)F displays activity coefficient of 1.95

CC(C)O [propan-2-ol] + CCCCCCn1cc[n+](C)c1.O=C([O-])C(F)(F)F has a reported activity coefficient of 0.34
